These measurements were taken from paper PMC9482650.

Test system: MAGI2_2, Q86UL8
Sequence (Q86UL8 410-522): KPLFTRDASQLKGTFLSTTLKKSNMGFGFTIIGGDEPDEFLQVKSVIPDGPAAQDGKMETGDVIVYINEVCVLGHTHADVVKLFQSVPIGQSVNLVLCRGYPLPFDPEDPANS
Procedure summary: holdup assay
Design: key: below the threshold = too weak to quantify, mostly under pKd 3.1 to 4
Measurement context: plain residues with an end cap or a label only (N-terminal biotin on a linker: ado-ado)
Quantity measured: pKd

Recorded results for 4 binders are shown here.
1. STKRKLASAV [NCF1, P14598] ... 5.44
2. EDGESWEYQI [TRPV6, Q9H1D0] ... below the threshold
3. RSSGGDDFWF [KCNV1, Q6PIU1] ... below the threshold
4. TNSRHGETTV [FZD2, Q14332] ... 4.59

Query block: For PYSESDDDWC [CACNA1A, O00555] , what is its reported pKd?
Result block: below the threshold

Query block: // next record LESTTVGTSV [KARS1, Q15046]
Result block: below the threshold

Query block: One more binder: SVTSERETNI [SLC16A7, O60669]
Result block: below the threshold

Query block: Again, but for DPAESMESLV [PTPRG, P23470]
Result block: 4.24
